system: OVCAR-5; assay: NCI tumour cell line growth inhibition, 48 h
The source made the active and inactive calls. Cut-off read from the data, not from the text of the source: active = GI50 up to about 1.1 µM and inactive = higher.
Form field: GI50 (one value per entry).

Query GI50 for S=C(Nc1ccccc1)Nc1[nH]c(=S)sc1-c1nc2ccccc2[nH]1 > 100 µM (inactive)

Query GI50 for Cc1c(-c2ccccc2)c(C#N)c2nnn(-c3ccc([N+](=O)[O-])cc3)c(=O)n12 27.4 µM (inactive)

Query GI50 for O=C1c2ccccc2CC1C1(O)C(=O)Nc2ccccc21 (stereo not given) > 100 µM (inactive)

Query GI50 for CC(C)(C)OC(=O)[C@@H]1CCC(=O)N1C1(c2ccccc2)c2ccccc2-c2ccccc21 93.1 µM (inactive)

Query GI50 for Cn1ccnc1CCc1c(Cl)cccc1Cl > 100 µM (inactive)

----------
system: SW-620; experiment: NCI tumour cell line growth inhibition, 48 h
Active and inactive are the calls of the source. Rule as the data show it: active = GI50 up to about 1.1 µM and inactive = higher.
property: GI50

>>> experimental_result("COc1cccc2c1C(=O)c1c(O)c3c(c(O)c1C2=O)CC(O)(C(=O)CO)CC3OC1CC(N2CCOCC2C#N)C(O)C(C)O1 (centres undefined)")
"< 0.0001 µM (active)"
>>> experimental_result("CCN(CC)c1ccc2cc(C(=O)Nc3cccc4ccccc34)c(=N)oc2c1")
"67 µM (inactive)"
>>> experimental_result("N#CCCC1(CCC#N)S(=O)(=O)OCCOS1(=O)=O")
"24.1 µM (inactive)"

--- query ---
Query GI50 for CCCCCCN(N)C(=O)CC#N > 100 µM (inactive)

----------
system: IGROV-1; assay: NCI tumour cell line growth inhibition, 48 h
Active and inactive are the calls of the source. Cut-off read from the data, not from the text of the source: active = GI50 up to about 1.1 µM and inactive = higher.
property: GI50

>>> experimental_result("O=C(Nc1ccccc1)N1CCNC1=S")
"> 100 µM (inactive)"
>>> experimental_result("COc1cc(/C=C\\c2ccc(Cl)cc2)cc(OC)c1OC")
"1.08 µM (active)"

--- query ---
Give GI50 for O=C(CC1(O)C(=O)Nc2c(Cl)cc(Cl)cc21)c1cccc([N+](=O)[O-])c1 (stereo not drawn) tested on IGROV-1. 18.2 µM (inactive)

----------
system: CCRF-CEM; test: NCI tumour cell line growth inhibition, 48 h
Activity calls are given as the source filed them. Cut-off read from the data, not from the text of the source: active = GI50 up to about 1.1 µM and inactive = higher.
Could you please pick one outcome from this set? True = active, False = inactive

>>> category_label("CCCCCC(O)(CCCCC)CCCCCCCCC1=C(O)C(=O)c2ccc(=O)[nH]c2C1=O")
"False"
>>> category_label("c1ccc2c(c1)CN1CCCC1CN2 (stereo not given)")
"False"
>>> category_label("CC1CCC2(OC1)OC1CC3C4CC=C5CC(OC6OC(CO)C(OC7OC(C)C(OC8OC(C)C(O)C(O)C8O)C(O)C7O)C(O)C6OC6OC(C)C(O)C(O)C6O)CCC5(C)C4CCC3(C)C1C2C (stereo not given)")
"True"
>>> category_label("COc1cc(C(O)C(=O)c2cnc3cc([N+](=O)[O-])ccc3n2)ccc1O (stereo not given)")
"False"
>>> category_label("O=c1/c(=C/c2cccc([N+](=O)[O-])c2)sc2nc3ccccc3n12")
"False"

Give the logged outcome of this assay for the following molecule: CCOc1ccc(/N=N/C2C(=O)N(C(=O)CC(=O)Nc3ccccc3OC)N=C2C)cc1 (stereo not given) False

Give the logged outcome of this assay for the following molecule: C=C(Br)CNC(=O)CCC(=O)NCC(=C)Br False

Give the logged outcome of this assay for the following molecule: CC12OC3(C)OC(=O)C(c4ccccc4)(O1)C3(C)O2 (stereo not given) False

Give the logged outcome of this assay for the following molecule: O=C(c1ccc(Cl)c(Cl)c1)N(C(=S)OC12CC3CC(CC(C3)C1)C2)c1ccccc1 False

Give the logged outcome of this assay for the following molecule: C=CCc1cccc2cc(C(=O)NC3CCCCC3)c(=N)oc12 False

Give the logged outcome of this assay for the following molecule: Nc1ccc(S(=O)(=O)c2ccc(/N=[N+](\[O-])c3ccc(S(=O)(=O)c4ccc(N)cc4)cc3)cc2)cc1 False

Give the logged outcome of this assay for the following molecule: COc1ccc([N+]2=NC(c3ccc([N+](=O)[O-])cc3)=NN(c3ccccc3)C2)cc1.[O-][Cl+3]([O-])([O-])[O-] False

----------
tested on: HOP-62; test: NCI tumour cell line growth inhibition, 48 h
Calls of active or inactive are those of the source. Cut-off read from the data, not from the text of the source: active = GI50 up to about 1.1 µM and inactive = higher.
property: GI50

Consider the reported GI50 for these compounds:
>>> experimental_result("O=CN1CCN(C(=O)c2ccc(Cl)c(Cl)c2)C1=S")
"16.1 µM (inactive)"
>>> experimental_result("COc1cc(C(O)C(=O)c2cnc3cc([N+](=O)[O-])ccc3n2)ccc1O (centres undefined)")
"85.5 µM (inactive)"
>>> experimental_result("CCOC(=O)CCC(NC(=O)c1ccc(Nc2cnc3ccc(C(F)(F)F)cc3n2)cc1)C(=O)OCC (centres undefined)")
"14.1 µM (inactive)"

--- query ---
Query GI50 for CCOP(=O)(O)C(C)(C)NC > 100 µM (inactive)

----------
Form field: GI50 (one value per entry).
test system: RXF 393; experiment: NCI tumour cell line growth inhibition, 48 h
Active and inactive are the calls of the source. No stated cut-off is given here; in the data, active = GI50 up to about 1.1 µM and inactive = higher.

Consider the reported GI50 for these compounds:
>>> experimental_result("COc1cc(/C=C2\\Cc3ccccc3C2=O)cc(OC)c1OC")
"> 100 µM (inactive)"
>>> experimental_result("C[N+](C)(C)CC(CC(=O)[O-])C1CC1 (stereo not drawn)")
"> 100 µM (inactive)"
>>> experimental_result("O=c1[nH]c2cc([N+](=O)[O-])ccc2nc1/C(=N\\NO)C(O)c1ccc([N+](=O)[O-])cc1 (stereo not drawn)")
"> 100 µM (inactive)"

Query GI50 for CCc1nc(N)nc(N)c1-c1ccc2nn(-c3ccccc3)[n+]([O-])c2c1 10.3 µM (inactive)

----------
tested on: HCT-15
property: GI50

>>> experimental_result("C/C(=N/N)c1ccc2[nH]c3c(C)cc([N+](=O)[O-])c(C)c3c2c1")
"9.55 µM"
>>> experimental_result("Nc1ccc(C2SCC(=O)N2NS(=O)(=O)c2cccc(C(=O)O)c2)cc1 (stereo unspecified)")
"> 100 µM"
>>> experimental_result("CCCCCCCCCCCCCC[C@@H](O)[C@H]1CC[C@H]([C@H]2CC[C@H]([C@H](O)CCCCCC[C@@H](O)CC3=C[C@H](C)OC3=O)O2)O1")
"> 25 µM"
>>> experimental_result("N#Cc1c(-c2ccc(Cl)c(Cl)c2)c(-c2ccc(Cl)c(Cl)c2)nn(CC(=O)O)c1=O")
"28.2 µM"
>>> experimental_result("CC(=O)Nc1ccc(OC2=CCN(C)CC2)cc1")
"> 100 µM"
>>> experimental_result("CC(C)CCCC(C)[C@H]1CC[C@H]2[C@@H]3CC[C@H]4C[C@@H](CCC=C(c5cc(Cl)c(O)c(C(=O)OC(C)C)c5)c5cc(Cl)c(O)c(C(=O)OC(C)C)c5)CC[C@]4(C)[C@H]3CC[C@]12C (stereo partly specified)")
"> 50 µM"
>>> experimental_result("C[N+]1(C)[C@@H]2CC[C@H]1C[C@@H](OC(=O)C(CO)c1ccccc1)C2 (stereo partly specified) [ATROPINE METHYLBROMIDE]")
"> 100 µM"
>>> experimental_result("O=C1N[C@H](Cc2c[nH]cn2)C(=O)N2CCC[C@@H]12")
"> 100 µM"

Give GI50 for Cn1c(=O)c2nc(CCCc3ccc([N+](=O)[O-])cc3)[nH]c2n(C)c1=O tested on HCT-15. > 100 µM

Give GI50 for COc1ccc(Nc2n[nH]c(NS(=O)(=O)c3cc(C)c(Cl)cc3S)n2)cc1 tested on HCT-15. > 100 µM

Give GI50 for CCOC(=O)/C(=C\NC(C)(C)CO)c1nc2ccccc2[nH]1 tested on HCT-15. 81.7 µM

Give GI50 for O=C(Nc1ccccc1)N1CCNC1=S tested on HCT-15. > 100 µM

Give GI50 for O=C1c2ccccc2CC1C1(O)C(=O)Nc2ccccc21 (stereo unspecified) tested on HCT-15. > 100 µM

Give GI50 for OCSc1nn(CO)c(=S)s1 tested on HCT-15. 18.3 µM

----------
tested on: SW-620; assay: NCI tumour cell line growth inhibition, 48 h
Active and inactive are the calls of the source. No stated cut-off is given here; in the data, active = GI50 up to about 1.1 µM and inactive = higher.
Could you please pick one outcome from this set? active, inactive

>>> category_label("COc1ccc(P2(=S)Oc3ccc(C(c4ccccc4)(c4ccccc4)c4ccccc4)cc3O2)cc1 (centres undefined)")
"inactive"

Give the logged outcome of this assay for the following compound: O=C(c1ccncc1)n1nc(-c2ccccc2)c(/N=N/c2ccccc2[N+](=O)[O-])c1-c1ccccc1 inactive

Give the logged outcome of this assay for the following compound: CCn1nc(C)c2c1C(=O)NC(C)C(=O)N2 (centres undefined) inactive

----------
test system: UO-31; test: NCI tumour cell line growth inhibition, 48 h
Calls of active or inactive are those of the source. No stated cut-off is given here; in the data, active = GI50 up to about 1.1 µM and inactive = higher.
Could you please pick one outcome from this set? active, inactive

Past entries and their recorded results:
>>> category_label("CCSC1=N/C(=C\\c2ccco2)C(NN)=N1")
"inactive"
>>> category_label("CC(SC(=S)N(C)C)C(=O)Nc1nnc(-c2ccc(Cl)cc2)o1 (configuration not stated)")
"inactive"
>>> category_label("O=C(Nc1ccccc1)N1CCNC1=S")
"inactive"

Give the logged outcome of this assay for the following compound: COc1cc2c(cc1OC(=O)CC(C)O)C1C(OC2=O)C(OC(C)=O)C=C2CCN(C)[C@H]21 (some centres not stated) inactive

Give the logged outcome of this assay for the following compound: c1ccc(C(OCCN2CC3CCC(C2)N3)c2ccccc2)cc1 inactive

Give the logged outcome of this assay for the following compound: NC(=O)NC(=O)c1cccc(CNc2ccc(C(=O)N[C@@H](CCC(=O)O)C(=O)O)cc2)n1 inactive

Give the logged outcome of this assay for the following compound: CC1=C(C(=O)NNC(=O)CC#N)CC(C(=O)NNC(=O)CC#N)=C(C)N1 inactive

Give the logged outcome of this assay for the following compound: CC12CCC3(OCCO3)C(OC(=O)c3ccccc3)=C1CCC21OCCO1 (configuration not stated) inactive

Give the logged outcome of this assay for the following compound: CCc1nc(N)nc(N)c1-c1ccc2nn(-c3ccccc3)[n+]([O-])c2c1 inactive

Give the logged outcome of this assay for the following compound: C/C(=N\N)C(CN1CCOCC1)C(c1ccccc1)c1c(O)c2ccccc2oc1=O (configuration not stated) inactive

Give the logged outcome of this assay for the following compound: COc1ccc([N+]2=NC(c3ccc([N+](=O)[O-])cc3)=NN(c3ccccc3)C2)cc1.[O-][Cl+3]([O-])([O-])[O-] inactive

Give the logged outcome of this assay for the following compound: COc1cc2c3c(cc(Cl)nc3c1OC)C(O)(CC(=O)c1ccccc1)C(=O)N2 (configuration not stated) inactive

Give the logged outcome of this assay for the following compound: Cc1ccc2c(n1)C(=O)c1cc(C)c(C)cc1C2=O inactive

Give the logged outcome of this assay for the following compound: Cc1cc2c(cc1C)[n+]([O-])c(NCCCN(C)C)c(C#N)[n+]2[O-] inactive

Give the logged outcome of this assay for the following compound: COc1ccc(C(=O)/C=C/c2ccc(OCC#N)cc2)cc1OC inactive

Give the logged outcome of this assay for the following compound: CC1(C)[C@H]2CC[C@](C)(C2)[C@]1(S)Cc1ccccn1 inactive

Give the logged outcome of this assay for the following compound: N#Cc1nc(COCCOCc2ccccc2)oc1N inactive

Give the logged outcome of this assay for the following compound: O=S(=O)(O)c1cc(S(=O)(=O)O)c2cc(/N=N/c3ccc(/N=N/c4ccc(/C=C/c5ccc(/N=[N+](/[O-])c6ccc(/C=C/c7ccc(/N=N/c8ccc(/N=N/c9ccc%10cc(S(=O)(=O)O)cc(S(=O)(=O)O)c%10c9)cc8)cc7S(=O)(=O)O)c(S(=O)(=O)O)c6)cc5S(=O)(=O)O)c(S(=O)(=O)O)c4)cc3)ccc2c1 inactive

Give the logged outcome of this assay for the following compound: CCOC(=O)CCC(NC(=O)c1ccc(Nc2cnc3ccc(C(F)(F)F)cc3n2)cc1)C(=O)OCC (configuration not stated) inactive

Give the logged outcome of this assay for the following compound: O=NN(CCCl)C(=O)N[C@H]1CC[C@H](CC(=O)O)CC1 inactive
